- System: DU-145 prostate
- assay.procedure: NCI tumour cell line growth inhibition, 48 h
Documented TGI across a set of compounds
Response body: numeric value in µM, unit text excluded.

Cc1noc2nnn(-c3ccc(Cl)cc3)c(=O)c12; 14.3
CCCCCCCCCc1cccc(N2C(N)=NC(N)=NC2(C)C)c1; 8.4
COC(=O)C1=C(C)NC(C)=C(C(=O)OC)C1/C=C(Cl)/C=C/c1ccccc1; 36.7
CC[C@@H](C(=O)[C@@H](C)[C@@H](O)[C@H](C)[C@@H]1O[C@@H]([C@@H](CC)C(=O)N(CC)CC)CC[C@@H]1C)C1O[C@]2(C=CC(=O)[C@]3(CC[C@@](C)([C@H]4CC[C@](O)(CC)[C@H](C)O4)O3)O2)[C@H](C)C[C@@H]1C (stereo partly drawn); 12.6
CCOC(=O)C1OC(C2(C)OC3(OC4(C=CC3O)OC(C(C)C(=O)C(C)C(O)C(C)CC(C)c3c(Cl)cc(C)c(O)c3C(=O)O)C(C)CC4C)C(C)C2OC)CC1O (stereo not drawn); 5.93
Cc1c(COc2cc(OCc3cccc(C#N)c3)c(CN3C[C@H](O)C[C@@H]3C(=O)O)cc2Cl)cccc1-c1ccc2c(c1)OCCO2; 62.1
O=C(/C=C/c1ccc(O)c(O)c1)c1cc(O)cc(O)c1; 44.3
COC(=O)c1ccc(C)cc1/C=C1\Cc2ccc(C)cc2C1=O; 39

// query TGI value for entry CCOC(=O)C(=Cc1ccc(Oc2ccccc2)cc1)C(=O)OCC
27.5

Try this compound next: COc1ccc2c(c1)C(=O)c1c-2c(Nc2ccc(Cl)cc2)nc2ccccc12
98.5

Values from PubChem BioAssay (NCI)
